- assayRemarks: qHTS drug screen for cell cycle checkpoint inhibitors in PARPi-resistant BRCA-mutant ovarian cancer cell lines. (AID 1963452)
- runConditions: PEO1/OlaR viability, CellTiter-Glo luminescence, 96 h; measured here: PEO1 parental Z-AUC; stronger effect = lower value
Listed below: Z-AUC values for each entry.

compound | Z-AUC
NCCCC(O)(P(=O)(O)O)P(=O)(O)O | 0.814
CC(=O)Oc1ccccc1C(=O)Nc1ncc([N+](=O)[O-])s1 | 0.864
CNC1CCCN(c2c(F)cc3c(=O)c(C(=O)O)cn(C4CC4)c3c2OC)C1 (stereo unspecified) | 1.15
CC(C)(Sc1cc(C(C)(C)C)c(O)c(C(C)(C)C)c1)Sc1cc(C(C)(C)C)c(O)c(C(C)(C)C)c1 | 1.36
CCOC(=O)[C@H](CCc1ccccc1)N[C@H]1CCc2ccccc2N(CC(=O)O)C1=O | -0.731
CCOC(=O)c1ccc(OC(=O)CCCCCN=C(N)N)cc1 | 1.13
Nc1nc(F)nc2c1ncn2[C@@H]1O[C@H](CO)[C@@H](O)[C@@H]1O | 0.0902
O=C(O)c1cccnc1 | -0.782
CC(C)(C)C(=O)OCOP(=O)(COCCn1cnc2c(N)ncnc21)OCOC(=O)C(C)(C)C | 0.013
Nc1nc(N)nc(-c2cc(Cl)ccc2Cl)n1 | 0.667
COc1cc2ncnc(Nc3cccc(Cl)c3)c2cc1OC | 0.96

----------
- Test system: JEG-3
- assayRemarks: Primary qHTS to identify gynecologic anti-cancer compounds using libraries of approved drugs and bioactive compounds (AID 1345084); also: nearly all actives have a fitted effect of over 55% in size
- runConditions: Gynecologic cancer cell panel viability, ATPlite luminescence, 48 h; series mostly up to 57.5 µM
Records with an inconclusive call do not appear. Active and inactive are the calls of the source. The call rests on the fitted dose curve; in most records, active means well fitted cell-killing curve with a large enough effect; inconclusive means small, poorly fitted or top-dose-only effect, or effect the other way; inactive means flat fitted curve, though single readings scatter.

molecule | outcome
Cc1nnc(C(=O)NC(C)(C)c2nc(C(=O)NCc3ccc(F)cc3)c(O)c(=O)n2C)o1 | inactive
COc1cccc(N(C)C(=S)Oc2ccc3c(c2)CCCC3)n1 | inactive
CNNCc1ccc(C(=O)NC(C)C)cc1 | inactive
Cc1oc(=O)oc1CN1CCN(c2cc3c(cc2F)c(=O)c(C(=O)O)c2n3C(C)S2)CC1 (configuration not stated) | inactive
COc1ncnc(NS(=O)(=O)c2ccc(N)cc2)c1OC | inactive
O=C(O)c1cccnc1 | inactive
COc1c(N2CCNC(C)C2)c(F)cc2c(=O)c(C(=O)O)cn(C3CC3)c12 (configuration not stated) | inactive
C[C@@H](NCCCc1cccc(C(F)(F)F)c1)c1cccc2ccccc12 | inactive
COc1cnc(NS(=O)(=O)c2ccc(N)cc2)nc1 | inactive
CC(C)Cn1cnc2c(N)nc3ccccc3c21 | inactive
NC(=O)N1c2ccccc2CC(=O)c2ccccc21 | inactive
NNC(=O)c1ccncc1 | inactive

----------
- assayRemarks: qHTS assay to identify small molecule inhibitors of chordoma cells - UCH-1 (AID 1259355); also: nearly all actives have a fitted effect of over 55% in size
- runConditions: UCH-1 chordoma viability, CellTiter-Glo, 48 h, combination, with auranofin plus four topoisomerase inhibitors; series mostly up to 46.1 µM
Records with an inconclusive call do not appear. Active and inactive are the calls of the source. The call rests on the fitted dose curve; in most records, active means well fitted cell-killing curve with a large enough effect; inconclusive means small, poorly fitted or top-dose-only effect, or effect the other way; inactive means no such curve, though single readings can be large or run the other way.
Possible outcomes: 1 = active, 0 = inactive

compound | labelValue
CCOC(=O)[C@H](CCc1ccccc1)N[C@H]1CS[C@H](c2cccs2)CN(CC(=O)O)C1=O | 0
C[C@@H]1C[C@H]2[C@@H]3CCC4=CC(=O)C=C[C@]4(C)[C@@]3(Cl)[C@@H](O)C[C@]2(C)[C@@]1(OC(=O)c1ccco1)C(=O)CCl | 0
O=P(O)(O)C(O)(Cc1cccnc1)P(=O)(O)O | 0
CCOC(=O)c1ccc(C#Cc2ccc3c(c2)C(C)(C)CCS3)nc1 | 0
COc1c(N2CCNC(C)C2)c(F)cc2c(=O)c(C(=O)O)cn(C3CC3)c12 (stereo not given) | 0
O=S(=O)(c1cccc2cnccc12)N1CCCNCC1 | 0
O=S(=O)(O)CCS | 0
Cc1cccc(N(C)C(=S)Oc2ccc3ccccc3c2)c1 | 0
CC(C)(C#N)c1cc(Cn2cncn2)cc(C(C)(C)C#N)c1 | 0
CN(C)CCc1c[nH]c2ccc(CS(=O)(=O)N3CCCC3)cc12 | 0
COC(c1ccccc1)(c1ccccc1)[C@H](Oc1nc(C)cc(C)n1)C(=O)O | 0
Cc1noc(NS(=O)(=O)c2ccc(N)cc2)c1C | 0
CN1CCN(c2c(F)cc3c(=O)c(C(=O)O)cn4c3c2OCN4C)CC1 | 0
CCn1cc(C(=O)O)c(=O)c2cc(F)c(N3CCN(C)CC3)cc21 | 0
CNS(=O)(=O)Cc1ccc2[nH]cc(CCN(C)C)c2c1 | 0
N=C(N)c1ccc(OCCCCCOc2ccc(C(=N)N)cc2)cc1 | 0
C#CCN[C@@H]1CCc2ccccc21 | 0
CCCc1cc(C(N)=S)ccn1 | 0
NC(=O)N1c2ccccc2CC(=O)c2ccccc21 | 0
OC(Cn1cncn1)(Cn1cncn1)c1ccc(F)cc1F | 0
CCn1cc(C(=O)O)c(=O)c2cc(F)c(N3CCNCC3)cc21 | 0
O=C(N[C@H](CO)[C@H](O)c1ccc([N+](=O)[O-])cc1)C(Cl)Cl | 0
O=c1oc2c(O)c(O)cc3c(=O)oc4c(O)c(O)cc1c4c23 | 0
CCC(C)(C)c1ccc(CC(C)CN2C[C@@H](C)O[C@@H](C)C2)cc1 (stereo not given in full) | 0
CC(=O)CC(c1ccccc1)c1c(O)c2ccccc2oc1=O (stereo not given) | 0
CC(C)Cn1cnc2c(N)nc3ccccc3c21 | 0
CO[C@@H]1[C@@H](OC(N)=O)[C@@H](O)[C@H](Oc2ccc3c(O)c(NC(=O)c4ccc(O)c(CC=C(C)C)c4)c(=O)oc3c2C)OC1(C)C | 0
Cc1onc(-c2ccccc2Cl)c1C(=O)N[C@@H]1C(=O)N2[C@@H]1SC(C)(C)[C@@H]2C(=O)O | 0
Cc1ncc([N+](=O)[O-])n1CCO | 0
O=C(O)c1cccnc1 | 0
Nc1nc(N)c2nc(CNc3ccc(C(=O)NC(CCC(=O)O)C(=O)O)cc3)cnc2n1 (stereo not given) | 0
C[C@@H]1CN(c2c(F)c(N)c3c(=O)c(C(=O)O)cn(C4CC4)c3c2F)C[C@H](C)N1 | 0
CC[C@H](NC(C)C)[C@H](O)c1ccc(O)c2[nH]c(=O)ccc12 | 0
C[C@]12C=CC(=O)C=C1CC[C@@H]1[C@@H]2C(=O)C[C@@]2(C)[C@H]1CC[C@]2(O)C(=O)CO | 0
CC(N)C12CC3CC(CC(C3)C1)C2 (stereo not given) | 0
COc1cc2c(Nc3ccc(Br)cc3F)ncnc2cc1OCC1CCN(C)CC1 | 1
CCOCC(O)COc1ccc(NC(=O)CC[S+](C)C)cc1 (stereo not given) | 0
CCN(C)C(=O)Oc1cccc([C@H](C)N(C)C)c1 | 0
CN1CCN(c2c(F)cc3c(=O)c(C(=O)O)cn(CCF)c3c2F)CC1 | 0
COc1cc(NS(=O)(=O)c2ccc(N)cc2)nc(OC)n1 | 0
N[C@@H](C(=O)N[C@@H]1C(=O)N2C(C(=O)O)=C(Cl)CS[C@H]12)c1ccccc1 | 0
O=C(O)c1cn(C2CC2)c2cc(N3CCNCC3)c(F)cc2c1=O | 0
Nc1nc(F)nc2c1ncn2[C@@H]1O[C@H](CO)[C@@H](O)[C@@H]1O | 0
CCc1c2c(nc3ccc(OC(=O)N4CCC(N5CCCCC5)CC4)cc13)-c1cc3c(c(=O)n1C2)COC(=O)[C@]3(O)CC | 0
COc1ccccc1OCC(O)COC(N)=O (stereo not given) | 0
